- Measured on: RPA heterotrimer (UniProt P27694+P15927+P35244)
- Sequence (P27694 whole entry, chain 1 of 3): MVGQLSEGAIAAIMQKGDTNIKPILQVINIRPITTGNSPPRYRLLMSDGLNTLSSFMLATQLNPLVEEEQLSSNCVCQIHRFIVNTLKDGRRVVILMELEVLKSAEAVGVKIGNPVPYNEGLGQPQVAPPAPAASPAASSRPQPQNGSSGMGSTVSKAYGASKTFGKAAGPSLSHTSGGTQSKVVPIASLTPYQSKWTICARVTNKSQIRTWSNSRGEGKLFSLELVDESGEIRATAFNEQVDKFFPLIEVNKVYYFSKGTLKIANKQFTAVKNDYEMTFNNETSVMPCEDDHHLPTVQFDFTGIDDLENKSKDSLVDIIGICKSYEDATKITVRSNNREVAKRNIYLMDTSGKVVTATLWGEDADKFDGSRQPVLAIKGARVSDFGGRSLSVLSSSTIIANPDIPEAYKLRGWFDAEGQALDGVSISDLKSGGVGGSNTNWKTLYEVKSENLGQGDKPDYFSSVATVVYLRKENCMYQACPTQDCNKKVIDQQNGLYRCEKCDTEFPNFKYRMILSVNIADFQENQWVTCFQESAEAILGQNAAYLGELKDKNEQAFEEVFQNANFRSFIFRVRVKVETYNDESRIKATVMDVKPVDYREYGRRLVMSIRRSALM
- Sequence (P15927 whole entry, chain 2 of 3): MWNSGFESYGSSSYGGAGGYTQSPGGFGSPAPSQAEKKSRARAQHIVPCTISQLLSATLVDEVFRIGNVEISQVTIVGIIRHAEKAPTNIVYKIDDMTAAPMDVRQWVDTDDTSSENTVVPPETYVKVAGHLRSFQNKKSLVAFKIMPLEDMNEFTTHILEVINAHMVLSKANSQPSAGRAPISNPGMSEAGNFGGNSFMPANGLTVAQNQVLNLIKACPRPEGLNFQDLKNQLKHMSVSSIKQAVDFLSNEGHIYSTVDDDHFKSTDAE
- Sequence (P35244 whole entry, chain 3 of 3): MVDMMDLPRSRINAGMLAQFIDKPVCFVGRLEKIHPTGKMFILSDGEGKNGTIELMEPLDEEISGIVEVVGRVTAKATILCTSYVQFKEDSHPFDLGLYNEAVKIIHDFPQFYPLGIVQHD
- Assay overview: fluorescence anisotropy
- Experimental parameters: with 500 nM N-HelQ, which displaces RPA; EMSA: 10 mM Tris pH 7.5, 50 ug/ml BSA, 5% glycerol, 25 mM DTT, 37 C 10 min, 25 nM DNA, 5% TBE gel; anisotropy: same buffer, 30 C

{"columns": ["Construct sequence", "Kd [µM]"],
 "data": [
  ["GTCGGATCCTCTAGACAGCATCCATGATCACTGGCACTGGTAGAATTCGGC / CAACGTCATAGACGATTACATTGCTACATGGATGCTGTCTAGAGGATCCGA [fork-2 fluorescein]", 0.237]
]}
